The entries below are paired with their reported Decrease.
Assay: In vivo evaluation for the percentage decrease in blood pressure at 45 umol/kg administered through oral route in spontaneously hypertensive rats and observed for 0-6 h

COMPOUND: C=CC[C@H]1C(=O)N(CCN(C)C)c2ccc(Cl)cc2C[C@H]1c1ccc(OC)cc1
Decrease / %: 23

COMPOUND: C=CC[C@H]1C(=O)N(CCN(C)C)c2cccc(C(F)(F)F)c2C[C@H]1c1ccc(OC)cc1.Cl (relative stereo)
Decrease / %: 33

COMPOUND: COc1ccc([C@@H]2Cc3c(cccc3C(F)(F)F)N(CCN(C)C)C(=O)[C@H]2C)cc1.Cl
Decrease / %: 12

COMPOUND: C=CC[C@H]1C(=O)N(CCN(C)C)c2ccccc2C[C@H]1c1ccc(OC)cc1.Cl
Decrease / %: 25

COMPOUND: CCC[C@H]1C(=O)N(CCN(C)C)c2cccc(C(F)(F)F)c2C[C@H]1c1ccc(OC)cc1.Cl
Decrease / %: 14

COMPOUND: CC[C@H]1C(=O)N(CCN(C)C)c2cccc(Cl)c2C[C@H]1c1ccc(OC)cc1
Decrease / %: 14

COMPOUND: COc1ccc([C@@H]2Cc3c(cccc3C(F)(F)F)N(CCN(C)C)C(=O)[C@H]2C)cc1
Decrease / %: 24

COMPOUND: CCC[C@H]1C(=O)N(CCN(C)C)c2ccccc2C[C@H]1c1ccc(OC)cc1.Cl
Decrease / %: 10

COMPOUND: C=CCC1C(=O)N(CCN(C)C)c2cccc(C(F)(F)F)c2CC1c1ccc(OC)cc1.Cl (centres undefined)
Decrease / %: 24

###

Items are presented alongside their recorded IC50.
Species: Oryctolagus cuniculus
Experiment: In vitro evaluation for the vasorelaxant effects in circumferential strips of potassium-depolarized rabbit aorta. (IC50 in rabbit aorta strips contracted with KCl)
Assay type: functional
READOUT_LABEL: IC50 (µM)

COMPOUND: COc1ccc([C@@H]2Cc3cc(C(F)(F)F)ccc3N(CCN(C)C)C(=O)[C@@H]2C)cc1.Cl
NUMERIC_RESULT: 1.23
//
COMPOUND: COc1ccc([C@@H]2Cc3ccccc3N(CCN(C)C)C(=O)[C@@H]2C)cc1.Cl
NUMERIC_RESULT: 1.1
//
COMPOUND: C=CC[C@H]1C(=O)N(CCN(C)C)c2ccc(Cl)cc2C[C@H]1c1ccc(OC)cc1
NUMERIC_RESULT: 0.16
//
COMPOUND: C=CCC1C(=O)N(CCN(C)C)c2cccc(C(F)(F)F)c2CC1c1ccc(OC)cc1.Cl (centres undefined)
NUMERIC_RESULT: 0.1
//
COMPOUND: COc1ccc([C@@H]2Cc3c(ccc(SC)c3OC)N(CCN(C)C)C(=O)[C@@H]2C)cc1.Cl
NUMERIC_RESULT: 0.07
//
COMPOUND: CC[C@H]1C(=O)N(CCN(C)C)c2cccc(Cl)c2C[C@H]1c1ccc(OC)cc1
NUMERIC_RESULT: 0.08
//
COMPOUND: COc1ccc([C@@H]2Cc3c(cccc3C(F)(F)F)N(CCN(C)C)C(=O)[C@@H]2C)cc1
NUMERIC_RESULT: 0.08
//
COMPOUND: C=CC[C@H]1C(=O)N(CCN(C)C)c2cccc(C(F)(F)F)c2C[C@H]1c1ccc(OC)cc1.Cl (relative stereo)
NUMERIC_RESULT: 0.077
//
COMPOUND: CC[C@H]1C(=O)N(CCN(C)C)c2ccc(Cl)cc2C[C@H]1c1ccc(OC)cc1
NUMERIC_RESULT: 0.28

###

Species: Oryctolagus cuniculus
Experiment: In vitro evaluation for the vasorelaxant effects in circumferential strips of potassium-depolarized rabbit aorta. (IC50 in rabbit aorta strips contracted with KCl)
Assay type: functional
1 if IC50 is below 200 nM. -1 if not; exact matches included in -1.

MOLECULE: CCC[C@H]1C(=O)N(CCN(C)C)c2ccc(C(F)(F)F)cc2C[C@H]1c1ccc(OC)cc1.Cl
CATEGORY: -1
//
MOLECULE: COc1ccc([C@@H]2Cc3c(ccc(Br)c3OC)N(CCN(C)C)C(=O)[C@@H]2C)cc1.Cl
CATEGORY: 1
//
MOLECULE: COc1ccc([C@@H]2Sc3cc(Cl)ccc3N(CCN(C)C)C(=O)[C@@H]2OC(C)=O)cc1 [CLENTIAZEM]
CATEGORY: 1
//
MOLECULE: C=CC[C@H]1C(=O)N(CCN(C)C)c2ccc(C(F)(F)F)cc2C[C@H]1c1ccc(OC)cc1.Cl
CATEGORY: -1
//
MOLECULE: COc1ccc([C@@H]2Cc3cc(Cl)ccc3N(CCN(C)C)C(=O)[C@@H]2C)cc1
CATEGORY: 1

###

Assay: In vivo evaluation for the percentage decrease in blood pressure at 45 umol/kg administered through oral route in spontaneously hypertensive rats and observed for 0-6 h
Measured Decrease by item
READOUT_LABEL: Decrease (%)

COMPOUND: CCC[C@H]1C(=O)N(CCN(C)C)c2ccc(C(F)(F)F)cc2C[C@H]1c1ccc(OC)cc1.Cl
READOUT_LABEL: Decrease
NUMERIC_RESULT: 6
//
COMPOUND: CC[C@H]1C(=O)N(CCN(C)C)c2ccc(Cl)cc2C[C@H]1c1ccc(OC)cc1
READOUT_LABEL: Decrease
NUMERIC_RESULT: 20
//
COMPOUND: COc1ccc([C@@H]2Sc3cc(Cl)ccc3N(CCN(C)C)C(=O)[C@@H]2OC(C)=O)cc1 [CLENTIAZEM]
READOUT_LABEL: Decrease
NUMERIC_RESULT: 29
//
COMPOUND: C=CC[C@H]1C(=O)N(CCN(C)C)c2ccc(C(F)(F)F)cc2C[C@H]1c1ccc(OC)cc1.Cl
READOUT_LABEL: Decrease
NUMERIC_RESULT: 23
//
COMPOUND: COc1ccc([C@@H]2Cc3c(cccc3C(F)(F)F)N(CCN(C)C)C(=O)[C@@H]2OC(C)=O)cc1
READOUT_LABEL: Decrease
NUMERIC_RESULT: 17
//
COMPOUND: COc1ccc([C@@H]2Cc3c(ccc(SC)c3OC)N(CCN(C)C)C(=O)[C@@H]2C)cc1.Cl
READOUT_LABEL: Decrease
NUMERIC_RESULT: 18
//
COMPOUND: COc1ccc([C@@H]2Cc3c(ccc(Br)c3OC)N(CCN(C)C)C(=O)[C@@H]2C)cc1.Cl
READOUT_LABEL: Decrease
NUMERIC_RESULT: 9
//
COMPOUND: COc1ccc([C@@H]2Cc3c(cccc3C(F)(F)F)N(CCN(C)C)C(=O)[C@@H]2C)cc1
READOUT_LABEL: Decrease
NUMERIC_RESULT: 28

###

Test: In vivo evaluation for the percentage decrease in blood pressure at 135 umol/kg administered through oral route in spontaneously hypertensive rats and observed for 12-18 h
Type: functional, Rattus norvegicus

CPD_SMILES: CCC[C@H]1C(=O)N(CCN(C)C)c2ccccc2C[C@H]1c1ccc(OC)cc1.Cl
Decrease: 12%
//
CPD_SMILES: COc1ccc([C@@H]2Cc3c(cccc3C(F)(F)F)N(CCN(C)C)C(=O)[C@H]2C)cc1.Cl
Decrease: 8%
//
CPD_SMILES: C=CC[C@H]1C(=O)N(CCN(C)C)c2ccccc2C[C@H]1c1ccc(OC)cc1.Cl
Decrease: 18%
//
CPD_SMILES: C=CC[C@H]1C(=O)N(CCN(C)C)c2ccc(Cl)cc2C[C@H]1c1ccc(OC)cc1
Decrease: 25%
//
CPD_SMILES: COc1ccc([C@@H]2Cc3ccccc3N(CCN(C)C)C(=O)[C@@H]2C)cc1.Cl
Decrease: 8%
//
CPD_SMILES: COc1ccc([C@@H]2Cc3cc(C(F)(F)F)ccc3N(CCN(C)C)C(=O)[C@@H]2C)cc1.Cl
Decrease: 25%
//
CPD_SMILES: COc1ccc([C@@H]2Cc3c(ccc(Br)c3OC)N(CCN(C)C)C(=O)[C@@H]2C)cc1.Cl
Decrease: 14%
//
CPD_SMILES: COc1ccc([C@@H]2Cc3c(cccc3C(F)(F)F)N(CCN(C)C)C(=O)[C@@H]2Cc2ccccc2)cc1
Decrease: 6%

###

Test: In vivo evaluation for the percentage decrease in blood pressure at 135 umol/kg administered through oral route in spontaneously hypertensive rats and observed for 12-18 h
Format: functional, Rattus norvegicus
# Decrease values compiled below

MOLECULE: COc1ccc([C@@H]2Cc3cc(Cl)ccc3N(CCN(C)C)C(=O)[C@@H]2C)cc1
Decrease (%): 11
//
MOLECULE: C=CC[C@H]1C(=O)N(CCN(C)C)c2cccc(C(F)(F)F)c2C[C@H]1c1ccc(OC)cc1.Cl (relative stereo)
Decrease (%): 27
//
MOLECULE: COc1ccc([C@@H]2Cc3c(ccc(SC)c3OC)N(CCN(C)C)C(=O)[C@@H]2C)cc1.Cl
Decrease (%): 14
//
MOLECULE: CC[C@H]1C(=O)N(CCN(C)C)c2ccc(Cl)cc2C[C@H]1c1ccc(OC)cc1
Decrease (%): 21
//
MOLECULE: CC[C@H]1C(=O)N(CCN(C)C)c2cccc(C(F)(F)F)c2C[C@H]1c1ccc(OC)cc1.Cl
Decrease (%): 15
//
MOLECULE: CCC[C@H]1C(=O)N(CCN(C)C)c2ccc(C(F)(F)F)cc2C[C@H]1c1ccc(OC)cc1.Cl
Decrease (%): 8
//
MOLECULE: COc1ccc([C@@H]2Cc3c(OC)cccc3N(CCN(C)C)C(=O)[C@@H]2C)cc1.Cl
Decrease (%): 8
//
MOLECULE: COc1ccc([C@@H]2Cc3c(cccc3C(F)(F)F)N(CCN(C)C)C(=O)[C@@H]2C)cc1
Decrease (%): 22
